IC50 values, listed per item
tested-target: purified recombinant human Aggrecanase-2 (Ag2t-Phe628-Strep) (Homo sapiens)
Construct: the form used is denoted as Ag2t-Phe628-Strep (MW=41,737)
Sequence (Q9UNA0 262-628): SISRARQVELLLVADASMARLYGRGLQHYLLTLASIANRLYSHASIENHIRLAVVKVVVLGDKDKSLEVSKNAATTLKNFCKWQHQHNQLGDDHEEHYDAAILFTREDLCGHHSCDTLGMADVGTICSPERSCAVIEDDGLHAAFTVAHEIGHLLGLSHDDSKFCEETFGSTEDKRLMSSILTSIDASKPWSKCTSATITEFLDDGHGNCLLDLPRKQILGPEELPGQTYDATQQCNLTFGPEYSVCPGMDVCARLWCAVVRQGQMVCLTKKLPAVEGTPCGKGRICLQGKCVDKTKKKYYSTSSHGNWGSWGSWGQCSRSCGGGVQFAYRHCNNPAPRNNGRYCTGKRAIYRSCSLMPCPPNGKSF
method-notes: In vitro fluorescence screen for Aggrecanase-2 inhibitors
Format: biochemical
test-settings: Table 1; read-out: Agg 2 IC50
experimental-endpoint: IC50

> print(dat)
                                   compound  experimental.endpoint  obs.value
1  O=C(O)CC[C@H](NC(=O)c1ccc(-c2ccccc2)cc1)C(=O)NCCc1cccc(-c2ccc(C(F)(F)F)cc2)c1 [Example 10K]                   IC50   > 100 µM
2  O=C(O)CC[C@H](NC(=O)c1ccc(-c2cccs2)cc1)C(=O)NCc1ccccc1 [Example 11]                   IC50    ~0.8 µM
3  C#Cc1ccc(-c2ccc(CCNC(=O)[C@H](CCC(=O)O)NC(=O)c3ccc(-c4ccccc4)cc3)cc2)cc1 [Example 10F]                   IC50    > 30 µM
